Reported photoluminescence quantum yield is given for each of the following molecules.
# protocol-details: photoluminescence quantum yield (fraction); solvent given as SMILES
# condition: in ClCCl

Examples with answers:
molecule | photoluminescence quantum yield
COC(=O)c1cc(=O)n(C)c2cc(-c3ccc(N4CCN(C)CC4)cc3)sc12 | 0.99
CC(C)(C)NC(=O)c1ccc(C(=O)NC(C)(C)C)c2c1c1c3ccc(Cl)cc3c3cc(Cl)ccc3c1c1c3ccc(Cl)cc3c3cc(Cl)ccc3c21 | 0.07
O=S1(=O)C2=C(c3ccccc31)C1(c3ccccc32)c2ccccc2-c2sc3ccccc3c21 (stereo not drawn) | 0.01
CNc1ncc2nc(C#N)n(Cc3ccccc3)c2n1 | 0.58
O=P1(c2ccccc2)C(c2cc(C(F)(F)F)cc(C(F)(F)F)c2)=Cc2c3ccc4cccc5ccc(c6cc(-c7ccc(N(c8ccccc8)c8ccccc8)cc7)n1c26)c3c45 (stereo not drawn) | 0.23
CN(C)c1ccc(/C=C/c2cc(/C=C/c3ccc(N(C)C)cc3)nc(/C=C/c3ccc(N(c4ccccc4)c4ccccc4)cc3)n2)cc1 | 0.59
COc1ccc(/C=C/c2nc(/C=C/c3ccc(N(C)C)cc3)cc(/C=C/c3ccc(N(c4ccccc4)c4ccccc4)cc3)n2)cc1 | 0.68
COc1ccc(/C=C/C=C/C=C/c2ccc([N+](=O)[O-])cc2)cc1 | 0.074

Q) Given the molecule CCN(CC)c1ccc(-c2nc3c(c4c2-c2ccc(C#N)cc2CC4)-c2ccc(C#N)cc2CC3)cc1 , what is its reported photoluminescence quantum yield?
A) 0.842

Q) Quick one: COc1ccc(-c2cnc3cccc(-c4ccccc4)n23)cc1
A) 0.26

Provenance of the data: the Deep4Chem optical property database
